PROPERTY: melting point

Use the examples below as a reference point.
{"MOLECULE": "CN(C)C(=O)c1cn(Cc2ccc(-c3noc(C(F)(F)F)n3)cc2)nn1 [Compound 1.280]", "RESULT": "168 to 170 °C"}
{"MOLECULE": "FC(F)(F)c1nc(-c2ccc(Cn3cc(-c4ccccc4)nn3)cc2)no1 [Compound 1.4]", "RESULT": "161.5 to 164.4 °C"}
{"MOLECULE": "CC(C)(C)c1cn(Cc2ccc(-c3noc(C(F)(F)F)n3)cc2)nn1 [Compound 1.27]", "RESULT": "90.4 to 92.3 °C"}
{"MOLECULE": "FC(F)(F)c1nc(-c2ccc(Cn3cccn3)cc2)no1 [Compound 1.16]", "RESULT": "36 to 41 °C"}

INPUT: Give the reported melting point for this molecule. FC(F)(F)c1nc(-c2ccc(CN3CCSCC3)cc2)no1 [Compound 1.302]
OUTPUT: 54.5 to 56.6 °C

----------
PROPERTY: melting point

Use the examples below as a reference point.
{"COMPOUND": "N#Cc1ncn(Cc2ccc(-c3noc(C(F)(F)F)n3)nc2)n1 [Compound 1.257]", "melting point": "105 to 108 °C"}
{"COMPOUND": "CS(=O)(=O)c1ncn(Cc2ccc(-c3noc(C(F)(F)F)n3)cc2)n1 [Compound 1.296]", "melting point": "145.4 to 146.4 °C"}
{"COMPOUND": "CSc1ncn(Cc2ccc(-c3noc(C(F)(F)F)n3)cc2)n1 [Compound 1.299]", "melting point": "88 to 90.4 °C"}
{"COMPOUND": "CCCON=Cc1cnn(Cc2ccc(-c3noc(C(F)(F)F)n3)cc2)c1 [Compound 1.287]", "melting point": "60 to 95 °C"}
{"COMPOUND": "CN(C)C(=O)c1cnn(Cc2ccc(-c3noc(C(F)(F)F)n3)cc2)c1 [Compound 1.149]", "melting point": "124 to 129 °C"}

Each compound below has a reported value. Please supply its melting point.
1. FC(F)(F)c1nc(-c2ccc(Cn3nc4ccccc4n3)cc2)no1 [Compound 1.34]
2. CCOC(=O)c1cnn(CCc2ccc(-c3noc(C(F)(F)F)n3)cc2)c1 [Compound 1.310]
3. CNC(=O)c1cnnn1Cc1ccc(-c2noc(C(F)(F)F)n2)cc1 [Compound 1.291]
4. COC(=O)c1cnnn1Cc1ccc(-c2noc(C(F)(F)F)n2)cc1 [Compound 1.279]
5. COCCNC(=O)c1cnn(Cc2ccc(-c3noc(C(F)(F)F)n3)cc2)c1 [Compound 1.250]
6. Cc1nn(Cc2ccc(-c3noc(C(F)(F)F)n3)cc2)c(C)c1C [Compound 1.146]

OUTPUT:
["112.4 to 116.6 °C", "108 to 110 °C", "222 to 224 °C", "103 to 107 °C", "132 to 142 °C", "99.4 to 102 °C"]

----------
PROPERTY: melting point

Use the examples below as a reference point.
{"COMPOUND": "CCn1cc(-c2cn(Cc3ccc(-c4noc(C(F)(F)F)n4)cc3)nn2)c(C)n1", "PROPERTY": "melting point", "RESULT": "116.2 to 118.2 °C"}
{"COMPOUND": "COc1ccc(NC(=O)c2cn(Cc3ccc(-c4noc(C(F)(F)F)n4)cc3)nn2)cc1", "PROPERTY": "melting point", "RESULT": "205 to 207 °C"}
{"COMPOUND": "FC(F)(F)c1nc(-c2ccc(Cn3cc(-c4cccnc4)nn3)cc2)no1", "PROPERTY": "melting point", "RESULT": "159.8 to 163.1 °C"}
{"COMPOUND": "COc1ccc(-c2cn(Cc3ccc(-c4noc(C(F)(F)F)n4)cc3)nn2)cc1", "PROPERTY": "melting point", "RESULT": "187.7 to 196.2 °C"}
{"COMPOUND": "N#Cc1ncnn1Cc1ccc(-c2noc(C(F)(F)F)n2)cc1", "PROPERTY": "melting point", "RESULT": "120 to 124 °C"}
{"COMPOUND": "CS(=O)(=O)N1CCN(Cc2ccc(-c3noc(C(F)(F)F)n3)cc2)CC1", "PROPERTY": "melting point", "RESULT": "111.1 to 114.9 °C"}

Each compound below has a reported value. Please supply its melting point.
1. CONC(=O)c1cn(Cc2ccc(-c3noc(C(F)(F)F)n3)cc2)nn1
2. C[S+]([O-])c1ncn(Cc2ccc(-c3noc(C(F)(F)F)n3)cc2)n1 (centres unmarked)
3. CN(C)CCOC(=O)c1cnn(Cc2ccc(-c3noc(C(F)(F)F)n3)cc2)c1
4. FC(F)(F)c1nc(-c2ccc(Cn3cc(-c4ccccn4)nn3)cc2)no1

OUTPUT:
1: 198 to 200 °C; 2: 114.4 to 115.2 °C; 3: 60 to 70 °C; 4: 160.2 to 162.4 °C

Each compound below has a reported value. Please supply its melting point.
1. CON=Cc1cnn(Cc2ccc(-c3noc(C(F)(F)F)n3)cc2)c1
2. Cc1ccc(-c2cn(Cc3ccc(-c4noc(C(F)(F)F)n4)cc3)nn2)cc1
3. CC(C)(C)OC(=O)c1cnn(Cc2ccc(-c3noc(C(F)(F)F)n3)cc2)c1
4. Fc1ccc(-c2cn(Cc3ccc(-c4noc(C(F)(F)F)n4)cc3)nn2)cc1
5. FC(F)(F)c1nc(-c2ccc(Cn3cc(C=NOCc4ccccc4)cn3)cc2)no1

OUTPUT:
1: 88 to 98 °C; 2: 200.6 to 204.2 °C; 3: 81 to 91 °C; 4: 185.3 to 189 °C; 5: 75 to 85 °C

Each compound below has a reported value. Please supply its melting point.
1. COC(=O)c1cnn(Cc2ccc(-c3noc(C(F)(F)F)n3)cc2)c1
2. CON(C)C(=O)c1cn(Cc2ccc(-c3noc(C(F)(F)F)n3)cc2)nn1

OUTPUT:
1. 122 to 129 °C
2. 135 to 137 °C
